Give Enzyme degradation CDK9 (% remaining) @ 10 μM for every item shown.
Target under test: CDK9 (Homo sapiens, UniProt P50750)
Construct: endogenous in cells; host or cells: MDA-MB-231
Sequence (P50750 whole entry): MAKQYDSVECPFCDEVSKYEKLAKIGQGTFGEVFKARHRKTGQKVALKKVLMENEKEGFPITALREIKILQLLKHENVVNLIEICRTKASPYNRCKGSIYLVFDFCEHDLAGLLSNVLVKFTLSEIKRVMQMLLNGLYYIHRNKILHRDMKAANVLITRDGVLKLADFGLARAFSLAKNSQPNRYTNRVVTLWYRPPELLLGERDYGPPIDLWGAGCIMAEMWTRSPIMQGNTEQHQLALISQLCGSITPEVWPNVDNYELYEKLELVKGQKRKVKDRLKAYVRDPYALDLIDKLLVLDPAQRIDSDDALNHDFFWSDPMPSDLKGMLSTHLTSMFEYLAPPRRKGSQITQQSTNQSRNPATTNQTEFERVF
Assay details: CDK protein degradation activity (Western blotting), CDK9
Format: cell-based
Condition parameters: MDA-MB-231 cells, 10 μM, 16 hours, Western blot

Task item: Would you mind telling me what Enzyme degradation CDK9 (% remaining) @ 10 μM value was observed for Cc1cccc(C(=O)N[C@H]2C[C@@H](n3cnc4c(Nc5ccc(N6CCN(CC7CCN(c8cc9c(cc8F)C(=O)N([C@H]8CCC(=O)NC8=O)C9=O)CC7)CC6)cc5)ncnc43)C2)n1 [Compound 377] ?
Reply: 0/0/0%

Task item: Then this compound: Cc1cccc(C(=O)N[C@H]2C[C@@H](n3cnc4c(NCc5ccc(N6CCN(C(=O)CNc7ccc8c(c7)C(=O)N([C@H]7CCC(=O)NC7=O)C8=O)CC6)cc5)ncnc43)C2)n1 [Compound 149]
Reply: 0/0/0%

Task item: Then this compound: O=C1CC[C@H](N2C(=O)c3ccc(N4CC(C(=O)N5CCC(CCN6CCN(c7ccc(Nc8ncnc9c8ncn9C8CC(NC(=O)c9c(Cl)cccc9Cl)C8)cc7)CC6)CC5)C4)cc3C2=O)C(=O)N1 (some centres unmarked) [Compound 412]
Reply: 10/10/10%

Task item: Then this compound: Cc1cccc(C(=O)N[C@H]2C[C@@H](n3cnc4c(Nc5ccc(N6CCN(CC7CCN(c8ccc9c(c8)C(=O)N([C@H]8CCC(=O)NC8=O)C9=O)CC7)CC6)cc5)ncnc43)C2)n1 [Compound 88]
Reply: 0/0/0%

Task item: Then this compound: O=C1CC[C@H](N2C(=O)c3ccc(OCC(=O)N4CCC(CN5CCC(CNc6ncnc7c6ncn7C6CC(NC(=O)c7c(Cl)cccc7Cl)C6)CC5)CC4)cc3C2=O)C(=O)N1 (some centres unmarked) [Compound 169]
Reply: 0%

----------
Target under test: CDK9 (Homo sapiens, UniProt P50750)
Construct: endogenous in cells; host or cells: MDA-MB-231
Assay details: CDK protein degradation activity (Western blotting), CDK9
Type: cell-based
Condition parameters: MDA-MB-231 cells, 0.1 μM, 16 hours, Western blot
Measure name: Enzyme degradation CDK9 (% remaining) @ 0.1 μM (%)
Numeric only. Scale: %

Task item: Would you mind telling me what Enzyme degradation CDK9 (% remaining) @ 0.1 μM value was observed for O=C1CC[C@H](n2nnc3ccc(N4CCN(C5CCN(c6ccc(Nc7ncnc8c7ncn8C7CC(NC(=O)Cc8ccccc8)C7)cc6)CC5)CC4)cc3c2=O)C(=O)N1 (stereo partly drawn) ?
Reply: 80

Task item: Then this molecule: O=C1CCC(N2C(=O)c3cccc(OCC(=O)N4CCN(CCCN5CCN(c6ccc(Nc7ncnc8c7ncn8[C@H]7C[C@@H](NC(=O)Cc8ccccc8)C7)cc6)CC5)CC4)c3C2=O)C(=O)N1 (stereo partly drawn)
Reply: 90

----------
Give Enzyme degradation CDK9 (% remaining) @ 10 μM for every item shown.
Target under test: CDK9 (Homo sapiens, UniProt P50750)
Construct: endogenous in cells; host or cells: MDA-MB-231
Assay details: CDK protein degradation activity (Western blotting), CDK9
Type: cell-based
Condition parameters: MDA-MB-231 cells, 10 μM, 16 hours, Western blot

Task item: Would you mind telling me what Enzyme degradation CDK9 (% remaining) @ 10 μM value was observed for "O=C1CC[C@H](N2C(=O)c3ccc(N4CCC(CN5CCC(CNc6ncnc7c6ncn7[C@H]6C[C@@H](NC(=O)c7c(Cl)cccc7Cl)C6)CC5)CC4)cc3C2=O)C(=O)N1" ?
Reply: 0%

Task item: Then this molecule: "O=C1CC[C@H](N2C(=O)c3ccc(N4CC(C(=O)N5CCC(CN6CCN(c7ccc(Nc8ncnc9c8ncn9[C@H]8C[C@@H](NC(=O)c9c(Cl)cccc9Cl)C8)cc7)CC6)CC5)C4)cc3C2=O)C(=O)N1"
Reply: 0/0/0%

Task item: Then this molecule: O=C1CC[C@H](n2nnc3ccc(N4CCC(CN5CCN(c6ccc(Nc7ncnc8c7ncn8C7CC(NC(=O)c8cccc(Cl)n8)C7)cc6)CC5)CC4)cc3c2=O)C(=O)N1 (stereo partly drawn)
Reply: 10/10/10%

----------
Target under test: CDK2 (Homo sapiens)
Construct: endogenous in cells; host or cells: MDA-MB-231
Assay details: CDK protein degradation activity (Western blotting), CDK2
Assay type: cell-based
Condition parameters: MDA-MB-231 cells, 1 μM, 16 hours, Western blot
Give Enzyme degradation CDK2 (% remaining) @ 1 μM for every item shown.
Numeric only. Scale: %

Task item: Would you mind telling me what Enzyme degradation CDK2 (% remaining) @ 1 μM value was observed for O=C1CCC(N2C(=O)c3ccc(N4CCC(OCCN5CCN(c6ccc(Nc7ncnc8c7ncn8[C@H]7C[C@@H](NC(=O)Cc8ccccc8)C7)cc6)CC5)CC4)cc3C2=O)C(=O)N1 (some centres unmarked) ?
Reply: 30

Task item: Then this molecule: "O=C1CC[C@@H](c2ccc(OCC(=O)N3CCC(CCN4CCN(c5ccc(Nc6ncnc7c6ncn7[C@H]6C[C@@H](NC(=O)c7cccc(C(F)(F)F)n7)C6)cc5)CC4)CC3)cc2)C(=O)N1"
Reply: 50

Task item: Then this molecule: "O=C1CC[C@H](N2C(=O)c3cccc(NCC(=O)N4CCN(CCCN5CCN(c6ccc(Nc7ncnc8c7ncn8[C@H]7C[C@@H](NC(=O)Cc8ccccc8)C7)cc6)CC5)CC4)c3C2=O)C(=O)N1"
Reply: 60

----------
Target under test: CDK2 (Homo sapiens, UniProt P24941)
Construct: endogenous in cells; host or cells: MDA-MB-231
Assay details: CDK protein degradation activity (Western blotting), CDK2
Assay type: cell-based
Condition parameters: MDA-MB-231 cells, 1 μM, 16 hours, Western blot
Give Enzyme degradation CDK2 (% remaining) @ 1 μM for every item shown.
Numeric only. Scale: %

Task item: Would you mind telling me what Enzyme degradation CDK2 (% remaining) @ 1 μM value was observed for Cc1cccc(C(=O)NC2CC(n3cnc4c(Nc5ccc(N6CCN(C(=O)COc7cccc8c7C(=O)N([C@H]7CCC(=O)NC7=O)C8=O)CC6)cc5)ncnc43)C2)n1 (stereo partly shown) [Compound 85] ?
Reply: 60

Task item: Then this molecule: O=C1CCC(N2C(=O)c3ccc(N4CCC(CCN5CCN(c6ccc(Nc7ncnc8c7ncn8[C@H]7C[C@@H](NC(=O)Cc8ccccc8)C7)cc6)CC5)CC4)cc3C2=O)C(=O)N1 (stereo partly shown) [Compound 327]
Reply: 0

Task item: Then this molecule: O=C1CC[C@H](N2C(=O)c3ccc(N4CC(C(=O)N5CCN(CCC6CCN(c7ccc(Nc8ncnc9c8ncn9[C@H]8C[C@@H](NC(=O)Cc9ccccc9)C8)cc7)CC6)CC5)C4)cc3C2=O)C(=O)N1 [Compound 362]
Reply: 80

Task item: Then this molecule: Cc1cccc(C(=O)NC2CC(n3cnc4c(NCCCN5CCN(CC6CCN(C(=O)COc7ccc([C@@H]8CCC(=O)NC8=O)cc7)CC6)CC5)ncnc43)C2)n1 (stereo partly shown) [Compound 229]
Reply: 90

Task item: Then this molecule: O=C1CC[C@H](N2C(=O)c3ccc(N4CCC(CN5CCC(CNc6ncnc7c6ncn7C6CC(NC(=O)Cc7ccccc7)C6)CC5)CC4)cc3C2=O)C(=O)N1 (stereo partly shown) [Compound 181]
Reply: 30

Task item: Then this molecule: O=C1CC[C@H](N2C(=O)c3cccc(NCC(=O)N4CCN(CC5CCN(c6ccc(Nc7ncnc8c7ncn8[C@H]7C[C@@H](NC(=O)c8c(Cl)cccc8Cl)C7)cc6)CC5)CC4)c3C2=O)C(=O)N1 [Compound 311]
Reply: 20

Task item: Then this molecule: O=C1CC[C@H](N2C(=O)c3ccc(NCC(=O)N4CCC5(CC(N6CCN(c7ccc(Nc8ncnc9c8ncn9[C@H]8C[C@@H](NC(=O)Cc9ccccc9)C8)cc7)CC6)C5)C4)cc3C2=O)C(=O)N1 (stereo partly shown) [Compound 265]
Reply: 70

Task item: Then this molecule: Cc1cccc(C(=O)N[C@H]2C[C@@H](n3cnc4c(Nc5ccc(N6CCN(C7CC8(CCN(c9cc%10c(cc9F)C(=O)N([C@H]9CCC(=O)NC9=O)C%10=O)CC8)C7)CC6)cc5)ncnc43)C2)n1 [Compound 385]
Reply: 30

Task item: Then this molecule: O=C1CCC(N2C(=O)c3ccc(N4CCC(C(=O)N5CCN(CC6CCN(c7ccc(Nc8ncnc9c8ncn9[C@H]8C[C@@H](NC(=O)c9c(Cl)cccc9Cl)C8)cc7)CC6)CC5)CC4)cc3C2=O)C(=O)N1 (stereo partly shown) [Compound 474]
Reply: 30

----------
Target under test: CDK2 (Homo sapiens)
Construct: endogenous in cells; host or cells: MDA-MB-231
Assay details: CDK protein degradation activity (Western blotting), CDK2
Assay type: cell-based
Condition parameters: MDA-MB-231 cells, 10 μM, 16 hours, Western blot
Simple rule here: Enzyme degradation CDK2 (% remaining) @ 10 μM less than 30% is satisfied, otherwise not satisfied.

Task item: API: query returns whether the molecule falls strictly under 30% in Enzyme degradation CDK2 (% remaining) @ 10 μM. Query: "Cc1cccc(C(=O)N[C@H]2C[C@@H](n3cnc4c(NCc5cccc(N6CCN(CC7CCN(c8ccc9c(c8)C(=O)N([C@H]8CCC(=O)NC8=O)C9=O)CC7)CC6)c5)ncnc43)C2)n1"
Reply: not satisfied

Task item: Then this molecule: O=C1CCC(N2C(=O)c3ccc(N4CC(C(=O)N5CCN(C6CN(c7ccc(Nc8ncnc9c8ncn9[C@H]8C[C@@H](NC(=O)Cc9ccccc9)C8)cc7)C6)CC5)C4)cc3C2=O)C(=O)N1 (stereo partly shown)
Reply: not satisfied

Task item: Then this molecule: Cc1cccc(C(=O)NC2CC(n3cnc4c(NC5CCN(C(=O)CC6CCN(C(=O)CNc7ccc8c(c7)C(=O)N([C@H]7CCC(=O)NC7=O)C8=O)CC6)CC5)ncnc43)C2)n1 (stereo partly shown)
Reply: satisfied

Task item: Then this molecule: O=C1CC[C@H](N2C(=O)c3ccc(NCC(=O)N4CCC5(CC4)CC(N4CCC(c6ccc(Nc7ncnc8c7ncn8[C@H]7C[C@@H](NC(=O)Cc8ccccc8)C7)cc6)CC4)C5)cc3C2=O)C(=O)N1 (racemic)
Reply: satisfied

Task item: Then this molecule: "O=C1CCN(c2coc3cc(C(=O)N4CCC(CC(=O)N5CCN(c6ccc(Nc7ncnc8c7ncn8[C@H]7C[C@@H](NC(=O)Cc8ccccc8)C7)cc6)CC5)CC4)ccc23)C(=O)N1"
Reply: not satisfied

Task item: Then this molecule: Cc1cccc(C(=O)NC2CC(n3cnc4c(Nc5ccc(N6CCN(CC7CCN(C(=O)CNc8ccc9c(c8)C(=O)N([C@H]8CCC(=O)NC8=O)C9=O)CC7)CC6)cc5)ncnc43)C2)n1 (stereo partly shown)
Reply: satisfied

Task item: Then this molecule: "Cc1cccc(C(=O)N[C@H]2C[C@@H](n3cnc4c(NCc5ccc(OCC6CCN(C(=O)CNc7ccc8c(c7)C(=O)N([C@H]7CCC(=O)NC7=O)C8=O)CC6)cc5)ncnc43)C2)n1"
Reply: not satisfied

Task item: Then this molecule: Cc1cccc(C(=O)NC2CC(n3cnc4c(NC5CCN(C(=O)CC6CCN(c7ccc8c(c7)C(=O)N([C@H]7CCC(=O)NC7=O)C8=O)CC6)CC5)ncnc43)C2)n1 (stereo partly shown)
Reply: not satisfied

Task item: Then this molecule: O=C1CC[C@H](N2C(=O)c3ccc(N4CC(C(=O)N5CCC(CCN6CCN(c7ccc(Nc8ncnc9c8ncn9C8CC(NC(=O)Cc9ccccc9)C8)cc7)CC6)CC5)C4)cc3C2=O)C(=O)N1 (stereo partly shown)
Reply: not satisfied

Task item: Then this molecule: "COc1ccc(C(=O)N2CCC(CC(=O)N3CCN(c4ccc(Nc5ncnc6c5ncn6[C@H]5C[C@@H](NC(=O)Cc6ccccc6)C5)cc4)CC3)CC2)cc1N1CCC(=O)NC1=O"
Reply: satisfied

Task item: Then this molecule: "O=C1CC[C@@H](c2cccc(OCC(=O)N3CC(CN4CCC5(CC4)CC(N4CCN(c6ccc(Nc7ncnc8c7ncn8[C@H]7C[C@@H](NC(=O)Cc8ccccc8)C7)cc6)CC4)C5)C3)c2)C(=O)N1"
Reply: satisfied
